Assay: Stability in iv dosed ddy mouse brain after 30 min
Assay type: ADME, organism-based
Details: read-out: Stability
quantity.kind: remaining at 0.5 h (%)
The figure you give is taken to be in %; do not add the unit.

What does the record list as remaining at 0.5 h for COc1ccc([131I])c(CN(C(C)=O)c2cc(F)ccc2Oc2ccccc2)c1 ?
90

The measurements presented in this section are drawn from ChEMBL document CHEMBL1141419.
